# STUDY_SYSTEM: HRV3C (Human rhinovirus 14, UniProt P03303)
# Construct: 3CLpro and HRV3C was added using a Multidrop Combi
# Sequence (P03303 1538-1719): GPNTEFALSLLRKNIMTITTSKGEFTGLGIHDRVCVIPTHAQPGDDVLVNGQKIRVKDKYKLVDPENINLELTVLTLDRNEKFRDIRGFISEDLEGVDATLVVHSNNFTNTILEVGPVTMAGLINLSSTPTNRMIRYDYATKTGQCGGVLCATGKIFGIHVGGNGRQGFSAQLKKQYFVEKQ
# EXPERIMENT_DESCRIPTION: biochemical
# Parameters: species or system HRV
# MEASUREMENT_PARAMETERS: HRV3C, 30 mins preincubation, SAMDI-MS; read-out: HRV IC50 (bound)
Below: a set of entries, each annotated with reported IC50.
QUANTITY_MEASURED: IC50

INSERT INTO results (molecule, quantity_measured, result) VALUES
  ('N#C[C@H](C[C@@H]1CCNC1=O)NC(=O)[C@@H]1[C@@H]2[C@H](CN1C(=O)[C@@H]1C[C@]13CCCc1ccccc13)[C@@H]1C=C[C@H]2C1 (single isomer, unassigned) [Example 8]', 'IC50', '> 10 µM'),
  ('CC(C)(C)[C@H](NC(=O)C(C)(C)C(F)(F)F)C(=O)N1C[C@H]2[C@@H]([C@H]1C(=O)N[C@H](C#N)C[C@@H]1CCNC1=O)[C@H]1C=C[C@@H]2C1 [Compound 75]', 'IC50', '> 10 µM'),
  ('CC(C)(C)[C@H](NC(=O)C(F)(F)F)C(=O)N1C[C@H]2[C@@H]([C@H]1C(=O)N[C@H](C#N)C[C@@H]1CCNC1=O)[C@H]1C=C[C@@H]2CC1 (mixture of isomers) [Compound 59]', 'IC50', '> 10 µM'),
  ('N#C[C@H](C[C@@H]1CCNC1=O)NC(=O)[C@@H]1[C@@H]2[C@H](CN1C(=O)[C@H](CC1CCC1)NC(=O)C(F)(F)F)[C@@H]1C=C[C@H]2C1 [Example 95]', 'IC50', '> 10 µM'),
  ('CC(C)(C)[C@H](NC(=O)C(F)(F)F)C(=O)N1C[C@@H]2[C@@H]3C=C[C@@H]([C@H]4C[C@@H]34)[C@@H]2C1C(=O)N[C@H](C#N)C[C@@H]1CCNC1=O (stereo partly shown) [Example 88]', 'IC50', '> 10 µM'),
  ('[2H]C([2H])([2H])C([C@H](NC(=O)C(F)(F)F)C(=O)N1C[C@H]2[C@@H]([C@H]1C(=O)N[C@H](C#N)C[C@@H]1CCNC1=O)[C@H]1C=C[C@@H]2C1)(C([2H])([2H])[2H])C([2H])([2H])[2H] [Compound 124]', 'IC50', '> 0.5 µM'),
  ('CC(C)(C)[C@H](NC(=O)C(F)(F)F)C(=O)N1C[C@H]2[C@@H]([C@H]1C(=O)N[C@H](C#N)C[C@@H]1CC3(CC3)NC1=O)[C@H]1C=C[C@@H]2C1 [Example 14]', 'IC50', '> 10 µM'),
  ('CC(C)(C)[C@H](NC(=O)C(F)(F)F)C(=O)N1C[C@@H]2[C@H]3C[C@H](C[C@@H]3F)[C@@H]2[C@H]1C(=O)N[C@H](C#N)C[C@@H]1CCNC1=O [Example 96]', 'IC50', '> 0.5 µM'),
  ('CC(C)(C)[C@H](NC(=O)C(F)(F)F)C(=O)N1C[C@H]2[C@H]3CC[C@H](CC3)[C@H]2[C@@H]1C(=O)N[C@H](C#N)C[C@@H]1CCNC1=O [Compound 71a]', 'IC50', '> 10 µM'),
  ('CC(C)(C)[C@H](NC(=O)c1ccco1)C(=O)N1C[C@H]2[C@@H]([C@H]1C(=O)N[C@H](C#N)C[C@@H]1CCNC1=O)[C@H]1C=C[C@@H]2C1 [Example 19]', 'IC50', '> 10 µM');

---

# EXPERIMENT_DESCRIPTION: in vitro
# MEASUREMENT_PARAMETERS: human
Below: a set of entries, each annotated with reported CC50.
QUANTITY_MEASURED: CC50

INSERT INTO assay_data (compound, result) VALUES
  ('CC(C)(C)[C@H](NC(=O)C(F)(F)F)C(=O)N1C[C@@H]2[C@@H]3CC[C@@H](C3)[C@@H]2[C@H]1C(=O)N[C@H](C#N)CC1Cc2ccccc2NC1=O (stereo partly drawn) [Example 31]', '> 10 µM'),
  ('CC(C)(C)[C@H](NC(=O)C(F)(F)F)C(=O)N1C[C@@H]2[C@@H]3CC[C@@H](C3)[C@@H]2[C@H]1C(=O)N[C@H](C#N)C[C@@H]1CC2(CC2)NC1=O [Example 15]', '> 10 µM'),
  ('CC(C)(C)[C@H](NC(=O)C(F)(F)F)C(=O)N1C[C@H]2[C@@H]([C@H]1C(=O)N[C@H](C#N)C[C@@H]1CCNC1=O)[C@H]1C=C[C@@H]2C12CC2 [Example 25]', '> 10 µM');

---

Below: a set of entries, each annotated with reported IC50.
# STUDY_SYSTEM: HRV3C (Human rhinovirus 14, UniProt P03303)
# Construct: 3CLpro and HRV3C was added using a Multidrop Combi
# EXPERIMENT_DESCRIPTION: biochemical
# Set-up: species or system HRV
# MEASUREMENT_PARAMETERS: HRV3C, 30 mins preincubation, SAMDI-MS; read-out: HRV IC50 (bound)
QUANTITY_MEASURED: IC50

INSERT INTO results (structure_smiles, quantity_measured, result) VALUES
  ('C=C1C[C@@H]2C[C@H]1[C@H]1[C@@H]2CN(C(=O)[C@@H](NC(=O)C(F)(F)F)C(C)(C)C)[C@@H]1C(=O)N[C@H](C#N)C[C@@H]1CCNC1=O', 'IC50', '> 10 µM'),
  ('CO[C@](C)(C(=O)N[C@H](C(=O)N1C[C@H]2[C@@H]([C@H]1C(=O)N[C@H](C#N)C[C@@H]1CCNC1=O)[C@H]1C=C[C@@H]2C1)C(C)(C)C)C(F)(F)F', 'IC50', '> 10 µM'),
  ('CC(C)(C)[C@H](NC(=O)C(F)(F)Cl)C(=O)N1C[C@H]2[C@@H]([C@H]1C(=O)N[C@H](C#N)C[C@@H]1CCNC1=O)[C@H]1C=C[C@@H]2C1(F)F', 'IC50', '> 0.5 µM'),
  ('Cc1cc(C(=O)N[C@H](C(=O)N2C[C@H]3[C@@H]([C@H]2C(=O)N[C@H](C#N)C[C@@H]2CCNC2=O)[C@H]2C=C[C@@H]3C2)C(C)(C)C)no1', 'IC50', '> 10 µM'),
  ('CC(C)(C)[C@H](NC(=O)C(F)(F)F)C(=O)N1C[C@H]2[C@@H]([C@H]1C(=O)N[C@H](C#N)C[C@@H]1CCCNC1=O)[C@H]1C=C[C@@H]2C1', 'IC50', '> 10 µM');

---

# Test system: human beta-coronavirus OC43
# EXPERIMENT_DESCRIPTION: OC43 coronavirus antiviral assay in HeLa cells (cytopathic effect, cell-titer-glo)
# Format: cell-based
# MEASUREMENT_PARAMETERS: Betacoronavirus 1, OC43, HeLa, 144 h, 6 days at 33° C., read-out: EC50 (class)
QUANTITY_MEASURED: EC50

INSERT INTO assay_data (compound, result) VALUES
  ('CC(C)(C)[C@H](NC(=O)C1(F)CCC1)C(=O)N1C[C@H]2[C@@H]([C@H]1C(=O)N[C@H](C#N)C[C@@H]1CCNC1=O)[C@H]1C=C[C@@H]2C1', '< 100 nM'),
  ('CC(C)(C)[C@H](NC(=O)[C@@H]1CC1(F)F)C(=O)N1C[C@H]2[C@@H]([C@H]1C(=O)N[C@H](C#N)C[C@@H]1CCNC1=O)[C@H]1C=C[C@@H]2C1', '< 100 nM'),
  ('CC(C)(C)[C@H](NC(=O)C(F)(F)F)C(=O)N1C[C@H]2[C@@H]([C@H]1C(=O)N[C@H](C#N)C[C@@H]1CCNC1=O)[C@H]1C=C[C@@H]2C1', '< 100 nM'),
  ('CC(C)(C)[C@H](NC(=O)C(F)(F)F)C(=O)N1C[C@@H]2[C@@H]3CC[C@@H](C3)[C@@H]2[C@H]1C(=O)N[C@H](C#N)C[C@H]1Cn2nccc2NC1=O (relative stereo) [Compound 17b]', '100 to 1000 nM'),
  ('CC(C)(C)C(C(=O)N1C[C@H]2[C@@H]([C@H]1C(=O)N[C@H](C#N)C[C@@H]1CCNC1=O)[C@H]1C=C[C@@H]2C1)n1cc(C(F)(F)F)nn1 (some centres unmarked)', '100 to 1000 nM');

---

Below: a set of entries, each annotated with reported pIC50.
# STUDY_SYSTEM: HRV3C (Human rhinovirus 14, UniProt P03303)
# Construct: 3CLpro and HRV3C was added using a Multidrop Combi
# EXPERIMENT_DESCRIPTION: biochemical
# Set-up: species or system HRV
# MEASUREMENT_PARAMETERS: HRV3C, 30 mins preincubation, SAMDI-MS; read-out: HRV IC50 (bound)
pIC50: −log10 of the molar value.
QUANTITY_MEASURED: pIC50

INSERT INTO results (compound, result) VALUES
  ('CC(C)([C@H](NC(=O)C(F)(F)F)C(=O)N1C[C@H]2[C@@H]([C@H]1C(=O)N[C@H](C#N)C[C@@H]1CCNC1=O)[C@H]1C=C[C@@H]2C1)C(F)(F)F [Compound 102a]', '< 6.30'),
  ('CC(C)(C)[C@H](NC(=O)C(F)(F)F)C(=O)N1C[C@H]2[C@@H]([C@H]1C(=O)N[C@H](C#N)C[C@@H]1OCC3(CC3)NC1=O)[C@H]1C=C[C@@H]2C1', '< 6.30'),
  ('CC(C)(C)[C@H](NC(=O)C(F)(F)C(F)(F)F)C(=O)N1C[C@H]2[C@@H]([C@H]1C(=O)N[C@H](C#N)C[C@@H]1OCCNC1=O)[C@H]1C=C[C@@H]2C1', '< 6.30'),
  ('CC(C)(C)[C@H](NC(=O)C(F)(F)F)C(=O)N1C[C@@H]2[C@H]3C[C@@H]([C@@H]2[C@H]1C(=O)N[C@H](C#N)C[C@@H]1CCNC1=O)[C@H]1[C@@H]3C1(F)F', '< 5.00'),
  ('CN1CC(C[C@@H](C#N)NC(=O)[C@@H]2[C@@H]3[C@H](CN2C(=O)[C@@H](NC(=O)C(F)(F)F)C(C)(C)C)[C@@H]2C=C[C@H]3C2)C(=O)N1 (stereo partly shown)', '< 5.00'),
  ('CC(C)(C)[C@H](NC(=O)C(F)(F)C(F)(F)F)C(=O)N1C[C@H]2[C@@H]([C@H]1C(=O)N[C@H](C#N)CC1CC3(COC3)NC1=O)[C@H]1C=C[C@@H]2C1 (stereo partly shown)', '< 6.30'),
  ('CC(C)(C)[C@H](NC(=O)C(F)(F)F)C(=O)N1C[C@@H]2[C@@H]3CC[C@@H](C3)[C@@H]2[C@H]1C(=O)N[C@H](C#N)C[C@H]1Cn2nccc2NC1=O (relative stereo) [Compound 17b]', '< 5.00'),
  ('CC(C)(C)[C@H](NC(=O)c1ccccn1)C(=O)N1C[C@H]2[C@@H]([C@H]1C(=O)N[C@H](C#N)C[C@@H]1CCNC1=O)[C@H]1C=C[C@@H]2C1', '< 5.00'),
  ('CC(C)(C)[C@H](NC(=O)C1(C2CC2)CC1)C(=O)N1C[C@H]2[C@@H]([C@H]1C(=O)N[C@H](C#N)C[C@@H]1CCNC1=O)[C@H]1C=C[C@@H]2C1', '< 5.00'),
  ('CC(C)(C)[C@H](NC(=O)[C@H]1CCCO1)C(=O)N1C[C@H]2[C@@H]([C@H]1C(=O)N[C@H](C#N)C[C@@H]1CCNC1=O)[C@H]1C=C[C@@H]2C1', '< 5.00');
